target: human muscarinic M4 receptor (Homo sapiens, UniProt P08173); construct: expressed in transfected cells; assay: Alphascreen Surefire phospho-ERK1/2 functional assay, M4; assay type: cell-based; settings: CHO cells stably expressing human M4; agonist 5 min, 37° C.; read-out: pEC50 M4 (converted)
Sequence (P08173 whole entry): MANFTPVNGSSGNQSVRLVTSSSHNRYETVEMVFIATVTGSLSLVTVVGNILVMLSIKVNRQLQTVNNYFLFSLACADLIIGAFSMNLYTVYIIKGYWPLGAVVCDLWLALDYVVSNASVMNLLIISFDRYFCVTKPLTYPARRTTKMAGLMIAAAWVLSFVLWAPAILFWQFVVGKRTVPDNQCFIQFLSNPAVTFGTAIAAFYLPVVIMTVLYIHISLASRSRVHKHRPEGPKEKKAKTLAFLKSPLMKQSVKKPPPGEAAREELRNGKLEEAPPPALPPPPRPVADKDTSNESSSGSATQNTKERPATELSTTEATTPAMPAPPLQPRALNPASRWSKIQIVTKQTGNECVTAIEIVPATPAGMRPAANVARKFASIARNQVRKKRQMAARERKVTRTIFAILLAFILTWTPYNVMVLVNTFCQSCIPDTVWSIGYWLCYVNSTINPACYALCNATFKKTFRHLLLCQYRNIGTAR
EC50 overview

>>> df
                                   molecule                             tested_target  measurement_kind  reported_result
0  CCN(CC)C(=O)OC1CN(C2CCC3(C2)CN(C(=O)OC)C3)C1 (single isomer, unassigned) [Example 4-6 Isomer 2]  human muscarinic M4 receptor (Homo sapiens, UniProt P08173)              EC50         0.339 µM
1  CCOC(=O)N1C2CCCC1CC(N1CC(CC(=O)N(CC)CC)C1)C2 (single isomer, unassigned) [Example 3-1 Isomer 1]  human muscarinic M4 receptor (Homo sapiens, UniProt P08173)              EC50          > 20 µM
2  CCOC(=O)N1C2CCC1CC(N1CC(OC(=O)N3CCCOCC3)C1)C2 (mixture of isomers) [Example 5-2 Isomer mixture]  human muscarinic M4 receptor (Homo sapiens, UniProt P08173)              EC50          > 20 µM
3  CCOC(=O)N1CC2CCC1CC2N1CC(CC(=O)N2CCCOCC2)C1 (single isomer, unassigned) [Example 2-4 Isomer 1]  human muscarinic M4 receptor (Homo sapiens, UniProt P08173)              EC50          > 20 µM
4  CCOC(=O)N1CC2CCC1CC2N1CC(OC(=O)N(CC)CC)C1 (single isomer, unassigned) [Example 6-1 Isomer 1]  human muscarinic M4 receptor (Homo sapiens, UniProt P08173)              EC50          > 20 µM
5  CCOC(=O)N1C2CCC1CC(N1CC(CC(=O)N3CCC34CCC4)C1)C2 (single isomer, unassigned) [Example 1-3 Isomer 2]  human muscarinic M4 receptor (Homo sapiens, UniProt P08173)              EC50          > 20 µM
6  CCOC(=O)N1CC2CCC1CC2N1CC(CC(=O)N(CC)C(C)C)C1 (single isomer, unassigned) [Example 2-2 Isomer 2]  human muscarinic M4 receptor (Homo sapiens, UniProt P08173)              EC50          > 20 µM
7  CCOC(=O)N1CC2CCC1CC2N1CC(CC(=O)N(CC)C(C)C)C1 (single isomer, unassigned) [Example 2-2 Isomer 1]  human muscarinic M4 receptor (Homo sapiens, UniProt P08173)              EC50         0.257 µM

Now let's try a different one.
INPUT: Which measured EC50 belongs to CCOC(=O)N1CC2CCC1CC2N1CC(CC(=O)N2CCCCC2)C1 (single isomer, unassigned) [Example 2-3 Isomer 1] , tested on human muscarinic M4 receptor (Homo sapiens, UniProt P08173)?
OUTPUT: 6.46 µM
